# Test system: Enterococcus sp.
# assay comment: in vitro antibacterial evaluation, MIC by broth dilution
# Format: cell-based
# measurement setup: broth dilution, 18 hours at 35° C.
Decide using MIC Enterococcus faecium (GC 4556) alone. Strictly below 20 µg/mL: fulfilled. Equal to or above 20 µg/mL: not fulfilled.

The examples below pair each entry with its known result.
# compound, cat
records = [
    ("CC(c1ccccc1)C1NC(=O)CNC(=O)C(CO)NC(=O)C(C(O)C2CNC(=N)N2C2OC(CO)C(O)C(O)C2O)NC(=O)C(C(O)C2CNC(=N)N2)NC(=O)C(Cc2ccc(OC3OC(CO)C(OC4OC5COC6(OC5C(O)C4O)C4CCCC6CCC4)C(O)C3O)cc2)NC1=O (stereo not shown) [Example 212]", "fulfilled"),
    ("CC(c1ccccc1)C1NC(=O)CNC(=O)C(CO)NC(=O)C(C(O)C2CNC(=N)N2C2OC(CO)C(O)C(O)C2O)NC(=O)C(C(O)C2CNC(=N)N2)NC(=O)C(Cc2ccc(OC3OC(CO)C(OC4OC5COC(c6ccc(C(=O)c7cc(I)c(I)c(I)c7)cc6)OC5C(O)C4O)C(O)C3O)cc2)NC1=O (stereo not shown) [Example 187]", "not fulfilled"),
    ("COc1ccc(COCC2OC(OC3C(CO)OC(Oc4ccc(CC5NC(=O)C(C(C)c6ccccc6)NC(=O)CNC(=O)C(CO)NC(=O)C(C(O)C6CNC(=N)N6C6OC(CO)C(O)C(O)C6O)NC(=O)C(C(O)C6CNC(=N)N6)NC5=O)cc4)C(O)C3O)C(O)C(O)C2O)cc1F (stereo not shown) [Example 237]", "fulfilled"),
]

Lookup: Is 20 µg/mL strictly greater than the compound's reported MIC Enterococcus faecium (GC 4556)? compound: CC(c1ccccc1)C1NC(=O)CNC(=O)C(CO)NC(=O)C(C(O)C2CNC(=N)N2C2OC(CO)C(O)C(O)C2O)NC(=O)C(C(O)C2CNC(=N)N2)NC(=O)C(Cc2ccc(OC3OC(CO)C(OC4OC(CO)C(O)C(OCc5ccc(OCc6ccccc6)cc5)C4O)C(O)C3O)cc2)NC1=O (stereo not shown) [Example 231c]
Found: fulfilled

Lookup: Is 20 µg/mL strictly greater than the compound's reported MIC Enterococcus faecium (GC 4556)? compound: CC(c1ccccc1)C1NC(=O)CNC(=O)C(CO)NC(=O)C(CC2CNC(=N)N2C2OC(CO)C(O)C(O)C2O)NC(=O)C(CC2CNC(=N)N2)NC(=O)C(Cc2ccc(OC3OC(CO)C(OC4OC(CO)C(O)C(OCc5ccc(OCc6ccccc6)cc5)C4O)C(O)C3O)cc2)NC1=O (stereo not shown) [Example 246b]
Found: not fulfilled

Lookup: Is 20 µg/mL strictly greater than the compound's reported MIC Enterococcus faecium (GC 4556)? compound: CC(c1ccccc1)C1NC(=O)CNC(=O)C(CO)NC(=O)C(C(O)C2CN(c3ncccn3)C(=N)N2C2OC(CO)C(O)C(O)C2O)NC(=O)C(C(O)C2CNC(=Nc3ncccn3)N2)NC(=O)C(Cc2ccc(OC3OC(CO)C(OC4OC5COC6(OC5C(O)C4O)C4CC5CC(C4)CC6C5)C(O)C3O)cc2)NC1=O (stereo not shown) [Example 228]
Found: not fulfilled

Lookup: Is 20 µg/mL strictly greater than the compound's reported MIC Enterococcus faecium (GC 4556)? compound: CC(c1ccccc1)C1NC(=O)CNC(=O)C(CO)NC(=O)C(C(O)C2CN(Cc3ccccc3)C(=NCc3ccccc3)N2C2OC(CO)C(O)C(O)C2O)NC(=O)C(C(O)C2CN(Cc3ccccc3)C(=NCc3ccccc3)N2Cc2ccccc2)NC(=O)C(Cc2ccc(OC3OC(CO)C(OC4OC(CO)C(O)C(O)C4O)C(O)C3O)cc2)NC1=O (stereo not shown) [Example 62]
Found: not fulfilled
